Some compounds, each annotated with its measured Bliss excess.
tested on: SBC-5 (Small Cell Lung Carcinoma); assay: Bliss excess, mean over the matrix (fraction); higher = more synergy;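 note: after 72 h of two-drug dosing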

| COMPOUND | Bliss excess |
| --- | --- |
| C=CCn1c(=O)c2cnc(Nc3ccc(N4CCN(C)CC4)cc3)nc2n1-c1cccc(C(C)(C)O)n1 [AZD1775] + C1CN(CCC1(C(=O)N[C@@H](CCO)C2=CC=C(C=C2)Cl)N)C3=NC=NC4=C3C=CN4 [Capivasertib] (first compound max 3 µM, partner max 3 µM) | 0.0256 |

INPUT: Write down the reported Bliss excess (system: SBC-5 (Small Cell Lung Carcinoma)) of Cc1c2c(nn1C)CSCc1cc(n(C)n1)CSc1cc(c3ccccc3c1)OCCCc1c(C(=O)O)n(C)c3c-2c(Cl)ccc13 [AZD5991] + C[C@@H](Nc1cc(F)cc(F)c1)c1cc(C(=O)N(C)C)cc2c(=O)cc(N3CCOCC3)oc12 [AZD8186] (first compound max 1 µM, 7x7, partner max 3 µM);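 note: after 72 h of two-drug dosing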
OUTPUT: 0.0033

INPUT: Write down the reported Bliss excess (system: SBC-5 (Small Cell Lung Carcinoma)) of Cc1c2c(nn1C)CSCc1cc(n(C)n1)CSc1cc(c3ccccc3c1)OCCCc1c(C(=O)O)n(C)c3c-2c(Cl)ccc13 [AZD5991] + CC1(C)CCC(CN2CCN(c3ccc(C(=O)NS(=O)(=O)c4ccc(NCC5CCOCC5)c([N+](=O)[O-])c4)c(Oc4cnc5[nH]ccc5c4)c3)CC2)=C(c2ccc(Cl)cc2)C1 [Venetoclax] (first compound max 1 µM, 7x7, partner max 1 µM);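 note: after 72 h of two-drug dosing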
OUTPUT: -0.0218

INPUT: Write down the reported Bliss excess (system: SBC-5 (Small Cell Lung Carcinoma)) of Cn1cnc2c(F)c(Nc3ccc(Br)cc3Cl)c(C(=O)NOCCO)cc21 [Selumetinib] + CCN(CCO)CCCOc1ccc2c(Nc3cc(CC(=O)Nc4cccc(F)c4)[nH]n3)ncnc2c1 [AZD2811] (first compound max 10 µM, 7x7, partner max 1 µM);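 note: after 72 h of two-drug dosing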
OUTPUT: -0.0253

INPUT: Write down the reported Bliss excess (system: SBC-5 (Small Cell Lung Carcinoma)) of CC(=O)c1c(C)c2cnc(Nc3ccc(N4CCNCC4)cn3)nc2n(C2CCCC2)c1=O [Palbociclib] + CC1(C)CCC(CN2CCN(c3ccc(C(=O)NS(=O)(=O)c4ccc(NCC5CCOCC5)c([N+](=O)[O-])c4)c(Oc4cnc5[nH]ccc5c4)c3)CC2)=C(c2ccc(Cl)cc2)C1 [Venetoclax] (first compound max 10 µM, 7x7, partner max 1 µM);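 note: after 72 h of two-drug dosing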
OUTPUT: 0.0178

---

tested on: SBC-3 (Small Cell Lung Carcinoma); experiment: combination Emax (second highest fraction inhibited in the dose matrix, 72 h); higher = more inhibition; extreme values may be limits of the assay
Some molecules, each annotated with its measured combination Emax.
Returns: the value as a bare number; no unit string appended.

Recorded combination Emax, per entry:
| MOLECULE | combination Emax |
| --- | --- |
| CC1(C)CCC(CN2CCN(c3ccc(C(=O)NS(=O)(=O)c4ccc(NCC5CCOCC5)c([N+](=O)[O-])c4)c(Oc4cnc5[nH]ccc5c4)c3)CC2)=C(c2ccc(Cl)cc2)C1 [Venetoclax] + C=CCn1c(=O)c2cnc(Nc3ccc(N4CCN(C)CC4)cc3)nc2n1-c1cccc(C(C)(C)O)n1 [AZD1775] (first compound max 1 µM, partner max 1 µM) | 0.899 |
| NC1(C(=O)N[C@@H](CCO)c2ccc(Cl)cc2)CCN(c2ncnc3[nH]ccc23)CC1 [Capivasertib] + C[C@@H]1COCCN1C2=NC(=NC(=C2)C3(CC3)[S@](=N)(=O)C)C4=C5C=CNC5=NC=C4 [AZD6738] (first compound max 10 µM, 7x7, partner max 10 µM) | 0.69 |
| O=C(c1cc(Cc2n[nH]c(=O)c3ccccc23)ccc1F)N1CCN(C(=O)C2CC2)CC1 [Olaparib] + COc1nnc2ccc(N3CCC(c4ccc(OCCN5CCN(C)C(=O)[C@H]5C)cc4)CC3)nn12 [AZD5153] (first compound max 10 µM, 7x7, partner max 1 µM) | 0.703 |

INPUT: Indicate its recorded combination Emax; the molecule in question is CC(=O)c1c(C)c2cnc(Nc3ccc(N4CCNCC4)cn3)nc2n(C2CCCC2)c1=O [Palbociclib] + CC1(C)CCC(CN2CCN(c3ccc(C(=O)NS(=O)(=O)c4ccc(NCC5CCOCC5)c([N+](=O)[O-])c4)c(Oc4cnc5[nH]ccc5c4)c3)CC2)=C(c2ccc(Cl)cc2)C1 [Venetoclax] (first compound max 10 µM, 7x7, partner max 1 µM)
OUTPUT: 0.613

INPUT: Indicate its recorded combination Emax; the molecule in question is CN(CCO)CC[C@H](CSc1ccccc1)Nc1ccc(S(=O)(=O)NC(=O)c2ccc(N3CCC([C@@H](O)c4ccccc4-c4ccc(Cl)cc4)CC3)cc2)cc1S(=O)(=O)C(F)(F)F [AZD4320] + Cn1cnc2c(F)c(Nc3ccc(Br)cc3Cl)c(C(=O)NOCCO)cc21 [Selumetinib] (first compound max 1 µM, 7x7, partner max 3 µM)
OUTPUT: 0.981

INPUT: Indicate its recorded combination Emax; the molecule in question is C[C@@H](Oc1cc(-c2cnn(C3CCNCC3)c2)cnc1N)c1c(Cl)ccc(F)c1Cl [Crizotinib] + Cn1cnc2c(F)c(Nc3ccc(Br)cc3Cl)c(C(=O)NOCCO)cc21 [Selumetinib] (first compound max 10 µM, 7x7, partner max 10 µM)
OUTPUT: 0.97

INPUT: Indicate its recorded combination Emax; the molecule in question is CN(CCO)CC[C@H](CSc1ccccc1)Nc1ccc(S(=O)(=O)NC(=O)c2ccc(N3CCC([C@@H](O)c4ccccc4-c4ccc(Cl)cc4)CC3)cc2)cc1S(=O)(=O)C(F)(F)F [AZD4320] + Cc1cc2ncnn2cc1Nc1ncc2c(n1)n(C1CCOCC1)c(=O)n2C [AZD7648] (first compound max 1 µM, 7x7, partner max 10 µM)
OUTPUT: 0.276
